Molecular target: FASN enzyme (Homo sapiens, UniProt P49327)
Sequence (P49327 whole entry): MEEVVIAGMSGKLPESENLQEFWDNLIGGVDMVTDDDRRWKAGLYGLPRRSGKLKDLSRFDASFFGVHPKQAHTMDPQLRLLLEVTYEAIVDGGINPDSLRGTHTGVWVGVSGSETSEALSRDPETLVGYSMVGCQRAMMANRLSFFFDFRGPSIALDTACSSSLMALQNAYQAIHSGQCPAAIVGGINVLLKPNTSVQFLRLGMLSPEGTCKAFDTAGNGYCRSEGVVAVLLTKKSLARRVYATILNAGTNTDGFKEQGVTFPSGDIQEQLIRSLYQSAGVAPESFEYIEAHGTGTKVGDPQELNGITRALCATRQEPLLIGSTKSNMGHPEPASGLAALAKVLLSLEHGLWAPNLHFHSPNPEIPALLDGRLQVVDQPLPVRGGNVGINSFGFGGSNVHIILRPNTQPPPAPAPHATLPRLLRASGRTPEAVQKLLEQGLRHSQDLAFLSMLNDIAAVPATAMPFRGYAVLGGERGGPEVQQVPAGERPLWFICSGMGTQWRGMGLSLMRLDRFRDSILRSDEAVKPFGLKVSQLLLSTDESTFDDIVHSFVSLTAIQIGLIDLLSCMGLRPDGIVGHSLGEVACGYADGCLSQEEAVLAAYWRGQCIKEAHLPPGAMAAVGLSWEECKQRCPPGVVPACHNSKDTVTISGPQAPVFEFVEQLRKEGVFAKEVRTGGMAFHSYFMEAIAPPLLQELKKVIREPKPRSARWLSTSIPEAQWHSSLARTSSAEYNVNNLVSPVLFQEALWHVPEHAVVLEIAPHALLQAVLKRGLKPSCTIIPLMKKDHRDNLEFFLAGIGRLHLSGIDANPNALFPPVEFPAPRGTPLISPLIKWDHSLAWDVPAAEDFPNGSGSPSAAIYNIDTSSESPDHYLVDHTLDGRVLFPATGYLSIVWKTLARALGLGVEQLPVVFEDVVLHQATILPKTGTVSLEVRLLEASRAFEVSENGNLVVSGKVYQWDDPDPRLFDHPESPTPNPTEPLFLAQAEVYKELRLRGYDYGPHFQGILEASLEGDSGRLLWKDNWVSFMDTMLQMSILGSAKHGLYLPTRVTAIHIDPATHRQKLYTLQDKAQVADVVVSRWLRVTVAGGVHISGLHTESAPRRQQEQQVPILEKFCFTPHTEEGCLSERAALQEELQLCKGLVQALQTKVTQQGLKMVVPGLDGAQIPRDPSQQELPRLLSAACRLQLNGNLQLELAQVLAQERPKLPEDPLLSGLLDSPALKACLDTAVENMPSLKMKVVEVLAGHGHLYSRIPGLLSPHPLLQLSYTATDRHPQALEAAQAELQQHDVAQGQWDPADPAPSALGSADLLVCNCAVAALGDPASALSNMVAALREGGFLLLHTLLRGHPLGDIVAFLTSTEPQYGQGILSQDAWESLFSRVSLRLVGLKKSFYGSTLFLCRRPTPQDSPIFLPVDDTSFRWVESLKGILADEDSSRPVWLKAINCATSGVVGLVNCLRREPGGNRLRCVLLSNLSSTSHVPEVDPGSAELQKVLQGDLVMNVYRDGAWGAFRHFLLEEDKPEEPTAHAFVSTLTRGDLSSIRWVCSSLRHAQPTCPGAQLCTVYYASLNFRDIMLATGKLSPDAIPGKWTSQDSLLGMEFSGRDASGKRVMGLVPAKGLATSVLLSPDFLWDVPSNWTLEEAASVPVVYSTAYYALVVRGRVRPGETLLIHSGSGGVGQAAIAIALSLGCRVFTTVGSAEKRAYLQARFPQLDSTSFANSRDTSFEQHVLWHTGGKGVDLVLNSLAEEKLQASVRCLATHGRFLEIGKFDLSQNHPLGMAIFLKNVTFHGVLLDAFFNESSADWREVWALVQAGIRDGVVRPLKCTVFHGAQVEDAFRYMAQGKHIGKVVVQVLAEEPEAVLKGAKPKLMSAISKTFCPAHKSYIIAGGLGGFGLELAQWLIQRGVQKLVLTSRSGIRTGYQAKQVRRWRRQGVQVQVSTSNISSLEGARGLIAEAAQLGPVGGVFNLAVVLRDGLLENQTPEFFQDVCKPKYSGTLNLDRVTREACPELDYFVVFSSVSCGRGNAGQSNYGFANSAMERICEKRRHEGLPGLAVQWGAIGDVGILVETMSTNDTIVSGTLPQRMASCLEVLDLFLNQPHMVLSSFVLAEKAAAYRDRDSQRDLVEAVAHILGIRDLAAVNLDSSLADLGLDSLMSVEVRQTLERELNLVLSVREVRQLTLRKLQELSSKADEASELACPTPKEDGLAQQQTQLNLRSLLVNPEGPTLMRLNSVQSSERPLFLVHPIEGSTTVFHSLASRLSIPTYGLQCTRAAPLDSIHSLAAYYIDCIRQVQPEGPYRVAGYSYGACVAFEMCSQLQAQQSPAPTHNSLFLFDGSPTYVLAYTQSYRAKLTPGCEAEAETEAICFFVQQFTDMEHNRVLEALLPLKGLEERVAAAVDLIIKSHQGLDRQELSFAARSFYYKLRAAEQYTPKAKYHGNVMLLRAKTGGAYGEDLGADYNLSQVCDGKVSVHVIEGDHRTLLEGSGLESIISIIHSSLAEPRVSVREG
Experiment: Enzymatic Assay for FASN Inhibitors
Format: biochemical
Method: Assays were performed in a 384-well black plate to measure the inhibition of FASN activities by individual compounds herein disclosed. […] The assay plate was incubated at 25° C. for 15 minutes, and read on a plate reader with excitation and emission wavelength at 360 nm and 530 nm, respectively. The IC50 of a given compound was calculated by fitting the dose response curve with a four parameter logistic equation.
pIC50: −log10 of the molar value.
Consider the following compounds; for each one, report its pIC50.

# input pIC50 for "O=C(c1ccc(N2CCc3ccccc32)cc1)N1CCN(C(=O)C2(O)CC2)CC1" ?
# output > 6.30

# input Please do the same for "NC1(C(=O)N2CCN(C(=O)c3ccc(-c4cc(Cl)ccc4F)cc3)CC2)CC1" as well.
# output > 6.30

# input Please do the same for "Nc1cc(-c2cccc(-c3ccc(C(=O)N4CCN(C(=O)C5(O)CC5)CC4)c(F)c3)c2)no1" as well.
# output > 6.30

# input Please do the same for "C[C@@H]1CN(C(=O)c2ccc(-c3nc4ccc(F)cc4o3)cc2)C[C@H](C)N1C(=O)C1(N)CC1" as well.
# output > 6.30

# input Please do the same for "N#CC1(c2cccc(-c3ccc(C(=O)N4CCN(C(=O)C5(N)CC5)CC4)cc3)c2)CC1" as well.
# output > 6.30

# input Please do the same for "Cn1ncc2ccc(-c3ccc(C(=O)N4CCN(C(=O)C5(O)CC5)CC4)c(Cl)c3)cc21" as well.
# output > 6.30

# input Please do the same for "Cn1ccc2cc(-c3ccc(C(=O)N4CCN(C(=O)C5(O)CC5)CC4)cc3)ccc21" as well.
# output > 6.30

# input Please do the same for "COc1ccc2nc(-c3ccc(C(=O)N4CCN(C(=O)C5(O)CC5)CC4)cc3)ccc2c1" as well.
# output > 6.30

# input Please do the same for "O=C(c1ccc(N2CCCc3ccccc3C2)cc1)N1CCN(C(=O)C2(O)CC2)CC1" as well.
# output > 6.30

* * *

biological target: FASN enzyme (Homo sapiens, UniProt P49327); test: Enzymatic Assay for FASN Inhibitors; type: biochemical; conditions: FASN enzymatic assay; Table 2-2
pIC50: −log10 of the molar value.
Consider the following compounds; for each one, report its pIC50.

# input pIC50 for "O=C(c1ccc(-c2ccc3oc(=O)[nH]c3c2)cc1)N1CCN(C(=O)C2(O)CC2)CC1" ?
# output 5.30 to 6.30

# input Please do the same for "O=C(c1ccc(-c2ccn3ccnc3n2)cc1)N1CCN(C(=O)C2(O)CC2)CC1" as well.
# output 5.30 to 6.30

# input Please do the same for "O=C(c1ccc(-c2cnc3ccc(Cl)cn23)cc1)N1CCN(C(=O)C2(O)CC2)CC1" as well.
# output 5.30 to 6.30

# input Please do the same for "O=C(c1ccc(-c2nc3cc(F)ccc3[nH]2)cc1)N1CCN(C(=O)C2(O)CC2)CC1" as well.
# output 5.30 to 6.30

# input Please do the same for "Cc1noc2cc(-c3ccc(C(=O)N4CCN(C(=O)C5(O)CC5)CC4)cc3)ccc12" as well.
# output 5.30 to 6.30

* * *

Molecular target: FASN enzyme (Homo sapiens)
Test: Enzymatic Assay for FASN Inhibitors
Format: biochemical
Conditions: FASN enzymatic assay; Table 2-3
Method: Assays were performed in a 384-well black plate to measure the inhibition of FASN activities by individual compounds herein disclosed. […] The assay plate was incubated at 25° C. for 15 minutes, and read on a plate reader with excitation and emission wavelength at 360 nm and 530 nm, respectively. The IC50 of a given compound was calculated by fitting the dose response curve with a four parameter logistic equation.
ASSAY_METRIC: IC50

# input Enter reported IC50 observed with FASN enzyme (Homo sapiens) for "COC(C)(C)C(=O)N1CCN(C(=O)c2ccc(-c3ccccc3)cc2)CC1"
# output ≥ 5 µM

# input Please do the same for "COc1ccc(-c2ccc(C(=O)N3CCN(C(=O)C4(O)CC4)CC3)cc2)c(Cl)c1" as well.
# output ≥ 5 µM

# input Please do the same for "COc1ccc(-c2ccc(C(=O)N3CCN(C(=O)C4(O)CC4)CC3)cc2)c(OC)n1" as well.
# output ≥ 5 µM

# input Please do the same for CC(O)(C(=O)N1CCN(C(=O)c2ccc(-c3ccccc3)cc2)CC1)C(F)(F)F (stereo not drawn) as well.
# output ≥ 5 µM

# input Please do the same for "O=C(c1ccc(-c2ccc(Cl)cc2F)nc1)N1CCN(C(=O)C2(O)CC2)CC1" as well.
# output ≥ 5 µM

# input Please do the same for "Cc1ccc(-c2ccc(C(=O)N3CCN(C(=O)C4(O)CC4)CC3)cc2)cn1" as well.
# output ≥ 5 µM

# input Please do the same for "COc1cnccc1-c1ccc(C(=O)N2CCN(C(=O)C3(O)CC3)CC2)cc1" as well.
# output ≥ 5 µM

# input Please do the same for "CC(C)Oc1ccc(Cl)cc1-c1ccc(C(=O)N2CCN(C(=O)C3(O)CC3)CC2)cc1" as well.
# output ≥ 5 µM

# input Please do the same for "Cn1ncc2cccc(-c3ccc(C(=O)N4CCN(C(=O)C5(O)CC5)CC4)cc3)c21" as well.
# output ≥ 5 µM

* * *

target: FASN enzyme (Homo sapiens); test: Enzymatic Assay for FASN Inhibitors; type: biochemical
pIC50: −log10 of the molar value.
Consider the following compounds; for each one, report its pIC50.

# input Enter reported pIC50 observed with FASN enzyme (Homo sapiens) for "C[C@@H]1CN(C(=O)c2ccc(-c3ccc(Cl)cc3F)cc2)CCN1C(=O)C1(O)CC1"
# output > 6.30

# input Please do the same for "Cn1cc2ccc(-c3cc(F)c(C(=O)N4CCN(C(=O)C5(N)CC5)CC4)c(F)c3)cc2n1" as well.
# output > 6.30

# input Please do the same for "O=C(c1ccc(-c2nc3ccc(F)cc3o2)cc1)N1CCN(C(=O)C2(O)CC2)CC12CC2" as well.
# output > 6.30

# input Please do the same for "O=C(c1ccc(-c2cn3ccccc3n2)cc1)N1CCN(C(=O)C2(O)CC2)CC1" as well.
# output > 6.30

# input Please do the same for "O=C(c1ccc(-c2ccc(Cl)cc2F)cc1)N1CCN(C(=O)C2(O)CC2)CC1" as well.
# output > 6.30

# input Please do the same for "O=C(c1ccc(-c2cc3ccccn3n2)cc1)N1CCN(C(=O)C2(O)CC2)CC1" as well.
# output > 6.30

# input Please do the same for "O=C(c1ccc(-c2nc3cc(Cl)ccc3[nH]2)cc1)N1CCN(C(=O)C2(O)CC2)CC1" as well.
# output > 6.30

# input Please do the same for "Cn1cnc2cc(-c3ccc(C(=O)N4CCN(C(=O)C5(O)CC5)CC4)cc3F)ccc21" as well.
# output > 6.30

# input Please do the same for "O=C(c1ccc(-c2cccc(NS(=O)(=O)C3CCC3)c2)cc1)N1CCN(C(=O)C2(O)CC2)CC1" as well.
# output > 6.30

# input Please do the same for "Nc1cc(-c2cccc(-c3ccc(C(=O)N4CCN(C(=O)C5(N)CC5)CC4)c(F)c3)c2)no1" as well.
# output > 6.30

# input Please do the same for "O=C(c1ccc(-n2cnc3ccccc32)cc1)N1CCN(C(=O)C2(O)CC2)CC1" as well.
# output > 6.30

# input Please do the same for "O=C(c1ccc(-c2ccc3c(C4CC4)n[nH]c3c2)cc1)N1CCN(C(=O)C2(O)CC2)CC1" as well.
# output > 6.30

# input Please do the same for "N#CC1(c2cccc(-c3ccc(C(=O)N4CCN(C(=O)C5(O)CC5)CC4)c(F)c3)c2)CC1" as well.
# output > 6.30

# input Please do the same for "COc1nc2ccccc2cc1-c1ccc(C(=O)N2CCN(C(=O)C3(O)CC3)CC2)c(F)c1" as well.
# output > 6.30

# input Please do the same for "O=C(c1ccc(-c2ccc3cc(F)ccc3n2)cc1)N1CCN(C(=O)C2(O)CC2)CC1" as well.
# output > 6.30

# input Please do the same for "C[C@H]1CN(C(=O)c2ccc(-c3ccc4c(c3)ncn4C)cc2)CCN1C(=O)C1(N)CC1" as well.
# output > 6.30

# input Please do the same for "O=C(c1ccc(-c2cc(F)c3[nH]ccc3c2)cc1)N1CCN(C(=O)C2(O)CC2)CC1" as well.
# output > 6.30

# input Please do the same for "O=C(c1ccc(-c2nc3ccc(Cl)cc3o2)cc1Cl)N1CCN(C(=O)C2(O)CC2)CC1" as well.
# output > 6.30

# input Please do the same for "O=C(c1ccc(-c2ccc3ncsc3c2)cc1)N1CCN(C(=O)C2(O)CC2)CC1" as well.
# output > 6.30
